Test system: NCI-H460
procedureDetails: Growth inhibition of human NCI-H460 cells at 10 uM after 48 hrs by sulforhodamine B assay
Format: functional
conditionLabel: NCI-H460, 48 h, values are per cent of control
growth, % of control at 10 µM values by entry
Hi! Could you send only the number? It should be in %, unit omitted.

In the examples that follow, each entry is paired with its recorded growth, % of control at 10 µM.
COc1cc(/C=C(\C#N)c2ccc3c(c2)OCO3)cc(OC)c1: 102
COc1ccc(/C=C(\C#N)c2ccc3c(c2)OCO3)c(OC)c1: 36
COc1cc(/C=C(\C#N)c2ccc3c(c2)OCO3)cc(OC)c1OC: 107
N#C/C(=C\c1cccnc1Cl)c1ccc2c(c1)OCO2: 102
COc1ccc(/C=C(\C#N)c2ccc3c(c2)OCO3)cn1: 95.2
COc1ccc(/C=C(\C#N)c2ccc3c(c2)OCO3)cc1OC: 106
N#C/C(=C\c1cc(F)cc(F)c1)c1ccc2c(c1)OCO2: 103
N#C/C(=C\c1c(Cl)cccc1Cl)c1ccc2c(c1)OCO2: 102

*Q* What measured growth, % of control at 10 µM goes with `COc1ccc(/C(C#N)=C/c2ccc3c(c2)OCCO3)cc1` ?
*A* 33.4

*Q* Another compound: `N#C/C(=C\c1cccc2ccccc12)c1ccc2c(c1)OCO2`
*A* 77.8

----------
Recorded growth, % of control at 10 µM, one value per entry.
procedureDetails: Growth inhibition of human BT549 cells at 10 uM after 48 hrs by sulforhodamine B assay
Type: functional
conditionLabel: BT-549, 48 h, values are per cent of control
Please format your answer as a value with the unit trailing.

Here's what some known entries look like.
N#C/C(=C\c1ccc2c(c1)OCO2)c1ccc2c(c1)OCO2: 49.6%
COc1cc(/C=C(\C#N)c2ccc3c(c2)OCO3)cc(OC)c1OC: 82.1%
N#C/C(=C\c1cc(Br)cc(Br)c1)c1ccc2c(c1)OCO2: 91.4%

// next entry
*Q* growth, % of control at 10 µM lookup needed for `N#C/C(=C\c1cccc2ccccc12)c1ccc2c(c1)OCO2` , thanks.
*A* 51.8%

----------
Measured growth, % of control at 10 µM by item
procedureDetails: Growth inhibition of human SF295 cells at 10 uM after 48 hrs by sulforhodamine B assay
Format: functional
conditionLabel: SF-295, 48 h, values are per cent of control
Hi! Could you send only the number? It should be in %, unit omitted.

COc1ccc(/C(C#N)=C/c2ccc3c(c2)OCO3)cc1: 80.8
N#C/C(=C\c1ccc2ccccc2n1)c1ccc2c(c1)OCO2: 64

*Q* Which growth, % of control at 10 µM is reported for this molecule? `COc1cc(/C=C(\C#N)c2ccc3c(c2)OCO3)cc(OC)c1OC`
*A* 96.1

*Q* Cool, now `N#C/C(=C\c1ccc2c(c1)OCO2)c1ccc2c(c1)OCO2`
*A* 76.5

*Q* Another molecule to look at: `N#C/C(=C\c1cccc2ccccc12)c1ccc2c(c1)OCO2`
*A* 68.2

*Q* Input `COc1ccc(/C=C(\C#N)c2ccc3c(c2)OCO3)c2ccccc12`
*A* 5.6

*Q* Then this molecule: `N#C/C(=C\c1ccsc1)c1ccc2c(c1)OCO2`
*A* 101

*Q* Another molecule to look at: `COc1ccc(/C(C#N)=C/c2ccc3c(c2)OCCO3)cc1OC`
*A* -14

*Q* Param item: `N#C/C(=C\c1cc2ccccc2s1)c1ccc2c(c1)OCO2`
*A* 2.9

*Q* One more molecule: `COc1ccc(/C=C(\C#N)c2ccc3c(c2)OCO3)cc1OC`
*A* 105

*Q* Another molecule: `N#C/C(=C\c1cccnc1Cl)c1ccc2c(c1)OCO2`
*A* 110

*Q* Can you handle `COc1cc(/C=C(\C#N)c2ccc3c(c2)OCO3)cc(OC)c1` next?
*A* 99.2

*Q* And what about the molecule `COc1ccc(/C=C(\C#N)c2ccc3c(c2)OCO3)c(OC)c1` ?
*A* 27.1

*Q* Param item: `N#C/C(=C\c1c(Cl)cccc1Cl)c1ccc2c(c1)OCO2`
*A* 95.6

*Q* Same question, `COc1ccc(/C(C#N)=C/c2ccc3c(c2)OCCO3)cc1` this time
*A* 66.7

*Q* What do we get for `COc1ccc(/C=C(\C#N)c2ccc3c(c2)OCO3)cn1` ?
*A* 89.3

----------
Recorded GI50 values for a group of molecules are listed next.
Tested on: A549
procedureDetails: Growth inhibition of human A549/ATCC cells after 48 hrs by sulforhodamine B assay
Type: functional
conditionLabel: A549, 48 h
State just the number; it will be interpreted in nM.

*Q* For `COc1ccc(/C=C(\C#N)c2ccc3c(c2)OCO3)cc1` , what is its reported GI50?
*A* 270

*Q* Another molecule to check: `N#C/C(=C\c1cc2ccccc2s1)c1ccc2c(c1)OCO2`
*A* 90

*Q* `COc1ccc(/C=C(\C#N)c2ccc3c(c2)OCO3)c2ccccc12` , same question.
*A* 2650

*Q* Please give the result for `COc1ccc(/C(C#N)=C/c2ccc3c(c2)OCCO3)cc1OC` too.
*A* 4120

*Q* Consider next the molecule `COc1ccc(/C(C#N)=C/c2ccc3c(c2)OCCO3)cc1` in the same way.
*A* 21700

*Q* Request: `COc1ccc(/C=C(\C#N)c2ccc3c(c2)OCO3)c(OC)c1`
*A* 2650

*Q* `COc1ccc(/C=C/c2cc(OC)c(OC)c(OC)c2)cc1` , same question.
*A* 3700

*Q* Repeat with `COc1cc(/C(C#N)=C/c2ccc3c(c2)OCCO3)cc(OC)c1OC`
*A* 60

*Q* Repeat with `N#C/C(=C\c1cccc2ccccc12)c1ccc2c(c1)OCO2`
*A* 5000

----------
procedureDetails: Growth inhibition of human BT549 cells at 10 uM after 48 hrs by sulforhodamine B assay
Type: functional
conditionLabel: BT-549, 48 h, values are per cent of control
observedProperty: growth, % of control at 10 µM (%)
Kindly answer with a numeric value in %, unit omitted.

Worked examples, 3 compounds total:
COc1ccc(/C=C(\C#N)c2ccc3c(c2)OCO3)c(Cl)c1OC: 64.1
COc1cc(/C=C(\C#N)c2ccc3c(c2)OCO3)cc(OC)c1: 86.4
N#C/C(=C\c1ccc2ccccc2n1)c1ccc2c(c1)OCO2: 86.1

*Q* Looking for the measured growth, % of control at 10 µM of `COc1ccc(/C(C#N)=C/c2ccc3c(c2)OCO3)cc1` , can you help?
*A* 74.7

*Q* Next compound up: `COc1ccc(/C=C(\C#N)c2ccc3c(c2)OCO3)cn1`
*A* 81

*Q* Would you kindly repeat that for `COc1ccc(/C=C(\C#N)c2ccc3c(c2)OCO3)c(OC)c1` ?
*A* 35.3

----------
procedureDetails: Growth inhibition of human HOP92 cells at 10 uM after 48 hrs by sulforhodamine B assay
Format: functional
conditionLabel: HOP-92, 48 h, values are per cent of control
observedProperty: growth, % of control at 10 µM (%)
Numeric only. Scale: %

Use the examples below as a reference point.
N#C/C(=C\c1ccc(Cl)cc1Cl)c1ccc2c(c1)OCO2: 99.9
N#C/C(=C\c1ccc2ccccc2n1)c1ccc2c(c1)OCO2: 90.2
COc1ccc(/C(C#N)=C/c2ccc3c(c2)OCCO3)cc1: 89
N#C/C(=C\c1ccc2c(c1)OCO2)c1ccc2c(c1)OCO2: 94.2
COc1ccc(/C=C(\C#N)c2ccc3c(c2)OCO3)cc1OC: 110
N#C/C(=C\c1cc(Br)cc(Br)c1)c1ccc2c(c1)OCO2: 113

*Q* Quick check: growth, % of control at 10 µM of `COc1cc(/C(C#N)=C/c2ccc3c(c2)OCCO3)cc(OC)c1OC` ?
*A* -1.7

*Q* Continue with `COc1ccc(/C=C(\C#N)c2ccc3c(c2)OCO3)cc1`
*A* 40.4

*Q* Similarly, `N#C/C(=C\c1cc2ccccc2s1)c1ccc2c(c1)OCO2` ?
*A* 60.8

----------
System: U-251
procedureDetails: Growth inhibition of human U251 cells after 48 hrs by sulforhodamine B assay
Type: functional
conditionLabel: U-251, 48 h
Label rule met when GI50 is strictly below 3000 nM; otherwise label rule not met.

Consider the worked cases shown below.
COc1ccc(/C=C(\C#N)c2ccc3c(c2)OCO3)cc1: rule met
COc1ccc(/C=C(\C#N)c2ccc3c(c2)OCO3)c2ccccc12: rule met
N#C/C(=C\c1cc2ccccc2s1)c1ccc2c(c1)OCO2: rule met
N#C/C(=C\c1cccc2ccccc12)c1ccc2c(c1)OCO2: rule not met
COc1ccc(/C(C#N)=C/c2ccc3c(c2)OCCO3)cc1OC: rule not met
COc1cc(/C(C#N)=C/c2ccc3c(c2)OCCO3)cc(OC)c1OC: rule met

Alright, here's another compound for you.
*Q* Report whether reported GI50 is lower than 3000 nM (strictly) for `COc1ccc(/C(C#N)=C/c2ccc3c(c2)OCCO3)cc1`
*A* rule not met
